- System: 786-O (renal adenocarcinoma) cell line
- Procedure details: CellTiter-Glo luminescent cell viability assay, 786-O
- Format: cell-based, human
- Setup conditions: Homo sapiens, 786-0; 786-O cell line; 72 h incubation; CellTiter-Glo; read-out: EC50, growth inhibition of 786-O
Where a name gives a salt, the structure may show the parent alone.
Readings of EC50 for the listed compounds

Take a look at these entries with their results.
INPUT: Entry Cc1cc(F)c2nc(NCc3ccc(Cl)cc3)cc(N3CCC(NC(C)(C)C)CC3)c2c1 [Compound 568] needs its EC50 filled in; supply it.
OUTPUT: 0.5 to 5 µM

INPUT: For the compound CN1CCN(C2CCN(c3c(C#N)c(NCc4ccc(Cl)cc4)nc4ccccc34)CC2)CC1 [Compound 3188CN] , give its reported EC50.
OUTPUT: 0.5 to 5 µM

INPUT: Consider the compound Clc1ccc(CNc2cc(N3CC[C@@H](Oc4ccccc4)C3)c3ccccc3n2)cc1 [Compound 3012, hydrochloride] . State its measured EC50.
OUTPUT: 0.5 to 5 µM

INPUT: Answer with the recorded EC50 of CC(C)(C)NC1CCN(c2c(C#N)c(Nc3ccc(F)c(F)c3)nc3ccccc23)CC1 [Compound 3264CN] only.
OUTPUT: 0.5 to 5 µM

INPUT: Tell me its EC50 given Cc1cccc(OC2CCN(c3cc(NCc4ccc(Cl)cc4)nc4ccccc34)CC2)c1 [Compound 2946, hydrochloride] as the entry.
OUTPUT: 5 to 10 µM

New cases:
INPUT: Name the recorded EC50 of the compound listed here: CNC(=O)C1CCN(c2cc(NCc3ccc(Cl)cc3)nc3ccccc23)CC1 [Compound 1598, hydrochloride]
OUTPUT: 5 to 10 µM

INPUT: Recall and state the measured EC50 for COc1ccc(Nc2nc3ccccc3c(N3CCC(NC(C)(C)C)CC3)c2C#N)cc1 [Compound 3252CN] .
OUTPUT: 0.5 to 5 µM

INPUT: Answer with the recorded EC50 of CC(C)(C)NC1CCN(c2c(C#N)c(Nc3ccc(F)cc3)nc3ccccc23)CC1 [Compound 3260CN] only.
OUTPUT: 0.5 to 5 µM

INPUT: Give the reported EC50 for this compound. Cc1ccc2nc(NCc3ccc(Cl)cc3)c(C#N)c(N3CCC(NC(C)(C)C)CC3)c2c1 [Compound 418CN]
OUTPUT: 0.5 to 5 µM

INPUT: Consider the compound CN1CCC(NC2CCCN(c3c(C#N)c(NCc4ccc(Cl)cc4)nc4ccccc34)C2)CC1 (centres unmarked) [Compound 3162CN] and give its recorded EC50.
OUTPUT: 0.5 to 5 µM

INPUT: Given CC(C)(C)NC1CCN(c2c(C#N)c(NCc3ccc4c(c3)OCO4)nc3ccccc23)CC1 [Compound 3300CN] , respond with its EC50.
OUTPUT: 5 to 10 µM

INPUT: Answer with reported EC50 of CC(C)(C)NC(=O)C1CCN(c2cc(NCc3ccc(Cl)cc3)nc3ccccc23)CC1 [Compound 1604, hydrochloride]
OUTPUT: 5 to 10 µM

Origin of values: patent US10577362B2
